target: Huntingtin (Homo sapiens) (UniProt P42858); assay: mutant huntingtin-calmodulin interaction inhibitors – biochemical, AlphaScreen, primary screen (AID 1671202); settings: AlphaScreen His-mHTT/GST-CaM binding, luminescence; at 15 µM, stronger effect = higher value;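 also: 0% = both proteins with DMSO and 100% = one protein alone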
Sequence (P42858 whole entry, looked up, stated change not applied): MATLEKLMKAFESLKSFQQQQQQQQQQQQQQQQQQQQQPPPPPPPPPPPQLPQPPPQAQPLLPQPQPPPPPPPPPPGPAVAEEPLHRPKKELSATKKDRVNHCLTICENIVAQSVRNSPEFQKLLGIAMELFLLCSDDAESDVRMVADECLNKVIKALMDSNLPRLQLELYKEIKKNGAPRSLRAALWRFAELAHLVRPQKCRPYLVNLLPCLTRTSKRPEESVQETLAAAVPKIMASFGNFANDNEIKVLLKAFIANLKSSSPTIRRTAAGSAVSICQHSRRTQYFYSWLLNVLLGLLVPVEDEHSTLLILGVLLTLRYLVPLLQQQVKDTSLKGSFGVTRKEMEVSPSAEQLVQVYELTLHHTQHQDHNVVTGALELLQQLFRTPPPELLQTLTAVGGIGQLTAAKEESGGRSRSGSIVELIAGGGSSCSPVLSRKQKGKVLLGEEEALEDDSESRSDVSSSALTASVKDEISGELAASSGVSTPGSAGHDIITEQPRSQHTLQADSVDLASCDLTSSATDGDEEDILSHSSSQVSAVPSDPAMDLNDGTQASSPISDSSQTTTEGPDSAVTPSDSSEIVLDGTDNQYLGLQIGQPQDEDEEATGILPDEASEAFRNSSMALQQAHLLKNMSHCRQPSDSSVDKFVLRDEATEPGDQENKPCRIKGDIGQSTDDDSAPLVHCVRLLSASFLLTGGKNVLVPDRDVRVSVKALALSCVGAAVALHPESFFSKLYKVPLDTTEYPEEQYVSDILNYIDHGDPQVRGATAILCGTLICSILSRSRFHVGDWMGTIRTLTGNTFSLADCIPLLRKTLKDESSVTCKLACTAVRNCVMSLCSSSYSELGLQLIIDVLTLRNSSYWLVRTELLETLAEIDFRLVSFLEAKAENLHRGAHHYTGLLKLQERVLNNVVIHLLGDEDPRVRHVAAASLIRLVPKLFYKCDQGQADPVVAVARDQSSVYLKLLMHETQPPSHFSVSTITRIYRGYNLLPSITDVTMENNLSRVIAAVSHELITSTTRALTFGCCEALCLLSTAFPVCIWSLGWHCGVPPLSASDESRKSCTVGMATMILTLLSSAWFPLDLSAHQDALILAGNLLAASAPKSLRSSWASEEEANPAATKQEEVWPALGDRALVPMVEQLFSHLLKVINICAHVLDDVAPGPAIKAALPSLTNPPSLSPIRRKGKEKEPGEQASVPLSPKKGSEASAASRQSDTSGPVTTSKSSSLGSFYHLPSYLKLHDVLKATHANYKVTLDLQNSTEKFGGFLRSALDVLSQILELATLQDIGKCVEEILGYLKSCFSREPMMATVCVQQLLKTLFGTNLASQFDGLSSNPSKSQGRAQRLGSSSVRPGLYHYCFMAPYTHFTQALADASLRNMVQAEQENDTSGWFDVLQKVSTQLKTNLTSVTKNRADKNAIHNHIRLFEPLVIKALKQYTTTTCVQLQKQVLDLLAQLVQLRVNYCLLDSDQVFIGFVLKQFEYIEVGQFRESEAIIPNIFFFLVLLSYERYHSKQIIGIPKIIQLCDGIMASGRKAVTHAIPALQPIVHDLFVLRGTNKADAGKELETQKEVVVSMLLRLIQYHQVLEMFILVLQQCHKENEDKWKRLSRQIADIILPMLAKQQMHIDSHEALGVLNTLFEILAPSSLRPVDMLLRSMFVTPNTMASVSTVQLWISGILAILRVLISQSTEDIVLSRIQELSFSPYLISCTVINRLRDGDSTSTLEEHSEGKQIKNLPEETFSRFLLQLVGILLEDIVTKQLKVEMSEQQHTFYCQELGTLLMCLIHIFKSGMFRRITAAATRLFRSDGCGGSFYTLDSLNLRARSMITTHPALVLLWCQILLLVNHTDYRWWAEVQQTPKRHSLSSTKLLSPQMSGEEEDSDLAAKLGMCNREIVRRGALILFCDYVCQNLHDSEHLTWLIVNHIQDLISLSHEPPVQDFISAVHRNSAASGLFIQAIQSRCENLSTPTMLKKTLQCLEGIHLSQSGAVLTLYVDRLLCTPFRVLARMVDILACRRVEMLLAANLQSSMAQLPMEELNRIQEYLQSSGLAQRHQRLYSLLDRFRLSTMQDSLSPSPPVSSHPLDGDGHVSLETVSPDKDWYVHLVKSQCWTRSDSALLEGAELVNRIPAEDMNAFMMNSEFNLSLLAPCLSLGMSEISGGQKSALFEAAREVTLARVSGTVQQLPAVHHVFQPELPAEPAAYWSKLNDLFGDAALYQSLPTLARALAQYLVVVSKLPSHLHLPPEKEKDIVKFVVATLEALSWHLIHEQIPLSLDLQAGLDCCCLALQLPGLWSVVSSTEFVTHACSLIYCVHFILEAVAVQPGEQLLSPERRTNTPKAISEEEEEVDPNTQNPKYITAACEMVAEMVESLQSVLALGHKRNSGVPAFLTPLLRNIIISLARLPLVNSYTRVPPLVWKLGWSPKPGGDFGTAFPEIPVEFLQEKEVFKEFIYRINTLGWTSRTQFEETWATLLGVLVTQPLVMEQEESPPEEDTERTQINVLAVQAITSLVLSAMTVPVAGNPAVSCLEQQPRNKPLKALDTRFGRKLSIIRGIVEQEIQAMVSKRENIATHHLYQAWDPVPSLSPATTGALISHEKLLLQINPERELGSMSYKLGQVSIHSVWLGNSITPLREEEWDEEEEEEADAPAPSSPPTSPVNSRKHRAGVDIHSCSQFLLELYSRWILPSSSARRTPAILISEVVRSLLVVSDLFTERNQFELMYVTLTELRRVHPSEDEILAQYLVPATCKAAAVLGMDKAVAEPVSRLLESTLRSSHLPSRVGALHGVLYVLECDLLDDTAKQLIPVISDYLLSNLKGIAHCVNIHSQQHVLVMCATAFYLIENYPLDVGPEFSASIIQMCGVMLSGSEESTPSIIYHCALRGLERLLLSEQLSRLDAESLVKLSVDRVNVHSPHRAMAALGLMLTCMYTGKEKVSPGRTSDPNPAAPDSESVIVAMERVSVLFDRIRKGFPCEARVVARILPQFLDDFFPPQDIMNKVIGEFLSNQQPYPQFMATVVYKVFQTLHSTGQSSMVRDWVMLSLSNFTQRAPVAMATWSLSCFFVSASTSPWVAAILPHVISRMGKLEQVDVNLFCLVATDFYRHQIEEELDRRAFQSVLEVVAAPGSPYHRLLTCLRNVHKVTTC
Screen size: about 190,000 compounds; about 6,900 (3.6%) were called active. The list comes from a sample in which actives are over-represented; it also holds close analogues and randomly drawn compounds.
measurementType: inhibition

compound: Cc1nnc(NC(=O)CSc2nc(C(C)C)ccc2C#N)s1
testTarget: Huntingtin (Homo sapiens) (UniProt P42858)
inhibition: -5% (inactive)

compound: CCn1c(=NC(=O)c2ccc(S(=O)(=O)N(C)C)cc2)sc2cc(F)ccc21
testTarget: Huntingtin (Homo sapiens) (UniProt P42858)
inhibition: 3% (inactive)

compound: Cc1ccc2[nH]cc(CCN3CC(C(=O)Nc4cccc(C)c4C)CC3=O)c2c1 (stereo unspecified)
testTarget: Huntingtin (Homo sapiens) (UniProt P42858)
inhibition: 30.5% (inactive)

compound: CC1CCc2nn(CC(=O)Nc3ccccc3Cl)c(=O)cc2C1 (stereo unspecified)
testTarget: Huntingtin (Homo sapiens) (UniProt P42858)
inhibition: 0.27% (inactive)

compound: O=C(NCc1ccc(F)cc1)c1cccc(N2CCNC(c3ccccc3)C2)n1 (stereo unspecified)
testTarget: Huntingtin (Homo sapiens) (UniProt P42858)
inhibition: 44.2% (inactive)

compound: O=C(NCCN1CCOCC1)C1CC(=O)N(CCc2c[nH]c3ccc(F)cc23)C1 (stereo unspecified)
testTarget: Huntingtin (Homo sapiens) (UniProt P42858)
inhibition: -6.88% (inactive)

GET /values?readout=inhibition&system=Huntingtin (Homo sapiens) (UniProt P42858)&item= CCNC(=O)c1cccc(N2CCNC(c3ccccc3)C2)n1 (stereo unspecified)
2.6% (inactive)

GET /values?readout=inhibition&system=Huntingtin (Homo sapiens) (UniProt P42858)&item= CC(C)c1ccc(OCC(=O)Nc2ccccc2[N+](=O)[O-])cc1
3.8% (inactive)

GET /values?readout=inhibition&system=Huntingtin (Homo sapiens) (UniProt P42858)&item= CNC(=O)C(=O)Nc1ccc(OC)cc1
2% (inactive)

GET /values?readout=inhibition&system=Huntingtin (Homo sapiens) (UniProt P42858)&item= CC(=O)c1cccc(NC(=O)C2CCN(S(=O)(=O)c3ccc(Br)cc3)CC2)c1
-1.7% (inactive)

GET /values?readout=inhibition&system=Huntingtin (Homo sapiens) (UniProt P42858)&item= CCC(c1ccccc1)c1nc(-c2ccc3nnn(C)c3c2)no1 (stereo unspecified)
-20.7% (inactive)

====

biological target: Huntingtin (Homo sapiens) (UniProt P42858); assay: mutant huntingtin-calmodulin interaction inhibitors – biochemical, AlphaScreen, primary screen (AID 1671202); details: AlphaScreen His-mHTT/GST-CaM binding, luminescence; at 15 µM;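 also: 0% = both proteins with DMSO and 100% = one protein alone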
Screen size: about 190,000 compounds; about 6,900 (3.6%) were called active. No stated cut-off is given here; in the data, active means inhibition above about 50%; inactive means the rest. For the sample, actives were picked, then their nearest neighbours and some compounds at random.
Respond only with the outcome that fits, drawn from active, inactive

compound: Cc1ccc(C(=O)N2CCN(c3ccccc3)CC2)c(Cl)c1
group: inactive

Give the logged outcome of this assay for the following compound: Cc1c(C)n(Cc2ccccc2)c2ccc(C(=O)N3CCN(C(=O)c4ccccc4)CC3)cc12
active

Give the logged outcome of this assay for the following compound: COc1cc(C(=O)N2CCC(CC(=O)NC3CCCC3)CC2)cc(OC)c1OC
inactive

Give the logged outcome of this assay for the following compound: Cc1cccc(C(=O)N2CCCN(C(=O)c3cccc(C)c3)CC2)c1
inactive

Give the logged outcome of this assay for the following compound: COc1ccc(-c2csc(/C(C#N)=C/Nc3cccc([N+](=O)[O-])c3)n2)cc1
inactive

Give the logged outcome of this assay for the following compound: O=C(CC(c1ccccc1)c1ccccc1)N1CCN(c2ccccc2F)CC1
inactive
